Target: SARS-CoV-2 M^pro (Severe acute respiratory syndrome coronavirus 2)
Assay: biochemical
Parameters: dose or concentration left out as unconfirmed
Settings: initial screen, Table S4; read-out: Normalized Percent FRET inhibition
Recorded inhibition values for a group of compounds are listed next.
Number only, in %; omit the unit.

C[C@H]1O[C@H](O[C@H]2[C@H](O)[C@@H](O)[C@@H](O[C@H]3[C@H](O)[C@@H](O)C(O)O[C@@H]3CO)O[C@@H]2CO)[C@H](O)[C@@H](O)[C@@H]1N[C@H]1C=C(CO)[C@@H](O)[C@H](O)[C@H]1O (some centres unmarked) :: -3.44
CC(=O)O[C@H]1C[C@@H]2CC[C@@H]3[C@H](CC[C@@]4(C)[C@H]3C[C@H]([N+]3(C)CCCCC3)[C@@H]4OC(C)=O)[C@@]2(C)C[C@@H]1N1CCCCC1 [Vecuronium bromide] :: 4.13
Cc1ccc(Nc2nccc(N(C)c3ccc4c(C)n(C)nc4c3)n2)cc1S(N)(=O)=O :: -0.955
CC1CNc2c(cccc2S(=O)(=O)N[C@@H](CCCNC(=N)N)C(=O)N2CC[C@@H](C)C[C@@H]2C(=O)O)C1 (some centres unmarked) :: 13.5
O=C1[C@H](CC[C@H](O)c2ccc(F)cc2)[C@@H](c2ccc(O)cc2)N1c1ccc(F)cc1 :: -1.34

Form field: reported inhibition of CC(C)=CCC[C@](C)(O[C@@H]1O[C@H](CO)[C@@H](O)[C@H](O)[C@H]1O)[C@H]1CC[C@]2(C)[C@@H]1[C@H](O)C[C@@H]1[C@@]3(C)CC[C@H](O)C(C)(C)[C@@H]3[C@@H](O[C@@H]3O[C@H](CO)[C@@H](O)[C@H](O)[C@H]3O)C[C@]12C [Ginsenoside Rg1]
4.19

###

Recorded inhibition values for a group of molecules are listed next.
Target: SARS-CoV-2 M^pro (Severe acute respiratory syndrome coronavirus 2, UniProt P0DTD1)
Test: biochemical
Set-up: dose or concentration left out as unconfirmed
Conditions: initial screen, Table S4; read-out: Normalized Percent FRET inhibition
Structures can show the parent of a compound that is named as a salt.
Number only, in %; omit the unit.

CC1=NN(c2ccc(C)c(C)c2)C(=O)/C1=N\Nc1cccc(-c2cccc(C(=O)O)c2)c1O :: 23.7

Form field: reported inhibition of COc1cc2nc(N3CCN(C(=O)C4COc5ccccc5O4)CC3)nc(N)c2cc1OC (stereo not shown) [Doxazosin mesylate]
0.919

Again, but for CO[C@@H]1[C@@H](OC(N)=O)[C@@H](O)[C@H](Oc2ccc3c(O)c(NC(=O)c4ccc(O)c(CC=C(C)C)c4)c(=O)oc3c2C)OC1(C)C [Novobiocin Sodium]
-0.228

Again, but for CC#CCn1c(N2CCC[C@@H](N)C2)nc2c1c(=O)n(Cc1nc(C)c3ccccc3n1)c(=O)n2C
8.28

Again, but for CN(C)c1cc(NC(=O)CNC(C)(C)C)c(O)c2c1C[C@H]1C[C@H]3[C@H](N(C)C)C(O)=C(C(N)=O)C(=O)[C@@]3(O)C(O)=C1C2=O
56.5

Again, but for C[C@@H]1O[C@@H](O[C@H]2C[C@@H](O)[C@]3(CO)[C@H]4[C@H](O)C[C@]5(C)[C@@H](C6=CC(=O)OC6)CC[C@]5(O)[C@@H]4CC[C@]3(O)C2)[C@H](O)[C@H](O)[C@H]1O [Ouabain octahydrate]
-0.948

Again, but for Cc1cc(/C=C/C#N)cc(C)c1Nc1ccnc(Nc2ccc(C#N)cc2)n1
5.87
